Exercise: state measured IC50, phosphorylation by TBK1 for each of the binders provided.
Molecular target: T1, Reg1_301-599 (human Regnase-1 amino acids 301 to 599, FLAG tag on the N-terminal side, BirA recognition … (human))
T1 sequence (Q5D1E8 301-599, looked up): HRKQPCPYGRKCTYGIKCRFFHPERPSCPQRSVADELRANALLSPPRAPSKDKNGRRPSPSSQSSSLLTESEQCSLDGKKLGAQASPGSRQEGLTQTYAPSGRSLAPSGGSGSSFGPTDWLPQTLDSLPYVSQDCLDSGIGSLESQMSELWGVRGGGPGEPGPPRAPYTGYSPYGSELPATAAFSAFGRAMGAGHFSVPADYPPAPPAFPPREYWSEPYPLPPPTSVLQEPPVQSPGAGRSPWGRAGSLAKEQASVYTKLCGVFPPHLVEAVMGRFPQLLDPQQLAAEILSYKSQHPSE
Assay: cell-based or functional assay
Positions of bridges follow the written chain, without caps; N, C: chain ends. Non-standard residues stand in square brackets, D forms with d. No end group written: not given here. NMeA = CN[C@@H](C)C(=O)O; dNMeA = CN[C@H](C)C(=O)O
Number only, in µM; omit the unit.

In: Supply reported IC50, phosphorylation by TBK1 belonging to this binder: [NMeA]DIWFDYWDYD (lactam N-11) [PP18]
Out: 0.9

In: Identify measured IC50, phosphorylation by TBK1 corresponding to [dNMeA]PTSSWYKIWD (lactam N-11) [PP23]
Out: 30.7

In: Complete the entry with IC50, phosphorylation by TBK1 for [NMeA]YIWDFFGDLD (lactam N-11) [PP4]
Out: 35.9

In: Name the recorded IC50, phosphorylation by TBK1 of the item [NMeA]NFNSAYYRAIWD (lactam N-13) [PP7] in your answer.
Out: 4.6

In: Assign IC50, phosphorylation by TBK1 to the following record: [NMeA]WIWDFWNED (lactam N-10) [PP24]
Out: 34.8

In: For [NMeA]GYANSWYNIWD (lactam N-12) [PP2] , write its IC50, phosphorylation by TBK1.
Out: 22.4

In: Please supply the value of reported IC50, phosphorylation by TBK1 for the item [NMeA]RFGVWSWIYPD (lactam N-12) [PP14]
Out: 6.8

In: Tell me its IC50, phosphorylation by TBK1 given [dNMeA]PNSSWFKIWD (lactam N-11) [PP6] as the entry.
Out: 16.8

In: Input [NMeA]NSWYINIWGHD (lactam N-12) [PP15] , output reported IC50, phosphorylation by TBK1.
Out: 17.4

In: For the binder [NMeA]NSWYRIWGLD (lactam N-11) [PP22] , give its measured IC50, phosphorylation by TBK1 value.
Out: 25.8

In: Identify measured IC50, phosphorylation by TBK1 corresponding to [NMeA]NYQSWYYRSIWD (lactam N-13) [PP10]
Out: 0.4

In: Find the measured IC50, phosphorylation by TBK1 of [dNMeA]TYGHSSWYKIWD (lactam N-13) [PP9] and report it.
Out: 7.9

In: For the binder [dNMeA]SKYWNSWYNIWD (lactam N-13) [PP8] , report IC50, phosphorylation by TBK1.
Out: 6
